# credit: PubChem BioAssay (NCI)

# Tested on: DU-145 prostate
# protocol_summary: NCI-60 one-dose screen, 48 h (100 = growth as untreated, 0 = no growth, -100 = all killed)
# run_conditions: 10 µM
About 83,000 compounds went through this panel and 20% of them were active in at least one assay; those are over-represented in the sample as a whole.
property_measured: growth (%)

compound: CCOc1ccc2c(c1)CC[C@@H]1[C@@H]2CC[C@]2(C)[C@@H](O)[C@@H](O)C[C@@H]12
scale_unit: %
value_observed: 108
--
compound: COC(=O)[C@]12CC[C@@H](C)[C@H](C)[C@@H]1C1=CC[C@@H]3[C@@]4(C)CC(=O)[C@H](O)[C@@](C)(CO)[C@@H]4C(=O)C[C@@]3(C)[C@]1(C)CC2
scale_unit: %
value_observed: -44.4
--
compound: N#CCC1CCCC1
scale_unit: %
value_observed: 127
--
compound: COc1cccc(C(=O)N(c2ccc(F)c(F)c2)C(C(=O)NC(C)(C)C)c2cc3c(C)cc(C)cc3nc2Cl)c1 (stereo unspecified)
scale_unit: %
value_observed: 75.5
--
compound: N#Cc1c(-c2ccccc2)nc(SCC(=O)N2CCOCC2)[nH]c1=O
scale_unit: %
value_observed: 112
--
compound: Nc1nc2c(nnn2C2CC(O)C(CO)O2)c(=O)[nH]1 (stereo unspecified)
scale_unit: %
value_observed: 21.8
--
compound: N#CC1C=Cc2c(ccc3ccccc23)N1C(=O)c1ccccc1 (stereo unspecified)
scale_unit: %
value_observed: -2.67
--
compound: C[N+]1(CC2CO2)CCCCCC1 (stereo unspecified)
scale_unit: %
value_observed: 107
--
compound: COc1cc([C@@H]2c3cc4c(cc3[C@H](SC(=N)N)[C@H]3COC(=O)[C@H]23)OCO4)cc(OC)c1OC
scale_unit: %
value_observed: 6.78
--
compound: O=c1oc2c3ccc4cnccc4c3[nH]c2c2ccccc12
scale_unit: %
value_observed: 16.9
--
compound: CCCCn1c(=O)[nH]c2c(c1=O)C(c1ccc(Cl)cc1)c1c([nH]c(=O)n(CCCC)c1=O)N2
scale_unit: %
value_observed: 105
--
compound: COc1cc(CSc2nc3ccc(Cl)cc3c(=O)n2-c2ccccc2)cc(OC)c1OC
scale_unit: %
value_observed: 92.9
--
compound: COc1cc2nc(Sc3sc(N)nc3C)n(-c3ccc(Oc4ccccc4)cc3)c(=O)c2cc1OC
scale_unit: %
value_observed: 98.3
--
compound: COc1ccc(-c2ccccc2)cc1C(=O)c1ccc(-c2ccccc2)cc1
scale_unit: %
value_observed: 94
--
compound: Oc1cc(O)c(Br)cc1Br
scale_unit: %
value_observed: 107
--
compound: Fc1ccc(-c2cc(C(Cl)Cl)no2)cc1
scale_unit: %
value_observed: 100
--
compound: CCOC(=O)c1c(Cl)c2c(n1Cc1cccc(OC)c1)-c1oncc1CC2
scale_unit: %
value_observed: 21.6
--
compound: O=C1c2cc(Cl)ccc2-c2c(O)cc(Cl)cc21
scale_unit: %
value_observed: 98.8
--
compound: C=CCN1C(=O)/C(=C\c2ccc3c(c2)CCC3)SC1=S
scale_unit: %
value_observed: 106
--
compound: CCCCCCCCCCSC(=N)N (tested in a mixture with another compound)
scale_unit: %
value_observed: 79.6
--
compound: COc1cc(-c2nc3ccc(C)cc3[nH]2)ccc1OCc1nnc(-c2ccc(CC(C)C)cc2)o1
scale_unit: %
value_observed: 101
